Tested on: 454973-116-R2-J3-PDC spheroids, percent test/control viability;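 further: spheroids exposed to compounds for 7 days before readout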
Test: Anticancer human tumor 454973-116-R2-J3-PDC patient-derived pancreatic carcinoma cell line growth inhibition [CLK]; active means viability on the fitted dose curve at most 10% of control; inactive means the rest
Details: second compound 0.0316 µM; first compound 10 µM; spheroids with HUVEC and MSC
Use one of these outcomes when replying: Y = active, N = inactive

Please review the following examples before continuing.
MOLECULE: COc1cccc2c1C(=O)c1c(O)c3c(c(O)c1C2=O)CC(O)(C(=O)CO)CC3OC1CC(N)C(O)C(C)O1 (configuration not stated) + CNC(=O)c1ccc(Nc2nc(OC3CCCC3)c3c(-c4ccc5nc(C)oc5c4)c[nH]c3n2)c(OC)c1
QUALITATIVE LABEL: Y
//
MOLECULE: CC(CO)NC(=O)c1cc(-c2ccc(Cl)cc2)nn(-c2cnn(C)c2)c1=O (configuration not stated) + CN1CCN(c2cc(C(=O)Nc3cc4cc(-c5cnn(C)c5)ccc4cn3)ccn2)CC1
QUALITATIVE LABEL: N
//
MOLECULE: CCCS(=O)(=O)Nc1ccc(F)c(C(=O)c2c[nH]c3ncc(-c4ccc(Cl)cc4)cc23)c1F + CNC(=O)c1ccc(Nc2nc(OC3CCCC3)c3c(-c4ccc5nc(C)oc5c4)c[nH]c3n2)c(OC)c1
QUALITATIVE LABEL: N
//
MOLECULE: Nc1ccn(C2OC(CO)C(O)C2(F)F)c(=O)n1 (configuration not stated) + CNC(=O)c1ccc(Nc2nc(OC3CCCC3)c3c(-c4ccc5nc(C)oc5c4)c[nH]c3n2)c(OC)c1
QUALITATIVE LABEL: Y
//
MOLECULE: CC(Nc1ccc2c(c1)OCCn1cc(N3C(=O)OCC3C(F)F)nc1-2)C(N)=O (configuration not stated) + CN1CCN(c2cc(C(=O)Nc3cc4cc(-c5cnn(C)c5)ccc4cn3)ccn2)CC1
QUALITATIVE LABEL: N
//
MOLECULE: Nc1ccccc1NC(=O)c1ccc(CNC(=O)OCc2cccnc2)cc1 + CNC(=O)c1ccc(Nc2nc(OC3CCCC3)c3c(-c4ccc5nc(C)oc5c4)c[nH]c3n2)c(OC)c1
QUALITATIVE LABEL: Y
//
MOLECULE: CC1(C)CCC(CN2CCN(c3ccc(C(=O)NS(=O)(=O)c4ccc(NCC5CCOCC5)c([N+](=O)[O-])c4)c(Oc4cnc5[nH]ccc5c4)c3)CC2)=C(c2ccc(Cl)cc2)C1 + CNC(=O)c1ccc(Nc2nc(OC3CCCC3)c3c(-c4ccc5nc(C)oc5c4)c[nH]c3n2)c(OC)c1
QUALITATIVE LABEL: N
//
MOLECULE: C=CC(=O)N1CCN(c2nc(=O)n(-c3c(C)ccnc3C(C)C)c3nc(-c4c(O)cccc4F)c(F)cc23)C(C)C1 (configuration not stated) + CN1CCN(c2cc(C(=O)Nc3cc4cc(-c5cnn(C)c5)ccc4cn3)ccn2)CC1
QUALITATIVE LABEL: N
//
MOLECULE: CC1COCCN1c1cc(C2(S(C)(=N)=O)CC2)nc(-c2ccnc3[nH]ccc23)n1 (configuration not stated) + CNC(=O)c1ccc(Nc2nc(OC3CCCC3)c3c(-c4ccc5nc(C)oc5c4)c[nH]c3n2)c(OC)c1
QUALITATIVE LABEL: N
//
MOLECULE: CCCS(=O)(=O)Nc1ccc(F)c(C(=O)c2c[nH]c3ncc(-c4ccc(Cl)cc4)cc23)c1F + CN1CCN(c2cc(C(=O)Nc3cc4cc(-c5cnn(C)c5)ccc4cn3)ccn2)CC1
QUALITATIVE LABEL: N

Check the results log: what was the call for COc1cccc2c1C(=O)c1c(O)c3c(c(O)c1C2=O)CC(O)(C(=O)CO)CC3OC1CC(N)C(O)C(C)O1 (configuration not stated) + CN1CCN(c2cc(C(=O)Nc3cc4cc(-c5cnn(C)c5)ccc4cn3)ccn2)CC1 ?
Y

Same again, this time with C=C(F)C(=O)N1CCN(c2nc(OCC3CCCN3C)nc3c2CCN(c2cccc4cccc(Cl)c24)C3)CC1CC#N (configuration not stated) + CNC(=O)c1ccc(Nc2nc(OC3CCCC3)c3c(-c4ccc5nc(C)oc5c4)c[nH]c3n2)c(OC)c1
Y
